# target.of.assay: 26S proteasome non-ATPase regulatory subunit 14 (Homo sapiens)
# assay.overview: inhibition of 26S proteasome subunit Rpn11 – biochemical, fluorescence polarization, uHTS, primary screen (AID 588493)
# measurement.conditions: human 26S proteasome, Ub4-pepOG fluorescence polarization; at 20 µM; active compounds read high; 20S core pre-blocked with epoxomicin
In all, about 360,000 compounds went through this assay and about 2,100 (0.58%) were called active. The list comes from a sample in which actives are over-represented; it also holds close analogues and randomly drawn compounds.
experimental.readout: inhibition (%)
I only need the number, in %, no unit after it.

> print(dat)
                                   molecule                           target.of.assay  experimental.readout  value.observed
1  Cc1sc2nc(COC(=O)C(NC(=O)c3ccc(Cl)cc3Cl)C(C)C)[nH]c(=O)c2c1C (stereo not given)  26S proteasome non-ATPase regulatory subunit 14 (Homo sapiens)            inhibition            56.9
2  CC(=O)/C(=N\Nc1ccc(Cl)cc1Cl)Sc1cccc2cccnc12  26S proteasome non-ATPase regulatory subunit 14 (Homo sapiens)            inhibition            78.5
3  O=C(Nc1ccc(OCCO)cc1)c1csc([C@H]2C[C@H](O)[C@@H](CO)O2)n1  26S proteasome non-ATPase regulatory subunit 14 (Homo sapiens)            inhibition             0.7
4  COc1cccc(CNC(=O)C2CCN(S(=O)(=O)c3cccc4cccnc34)CC2)c1  26S proteasome non-ATPase regulatory subunit 14 (Homo sapiens)            inhibition             7.6
5  O=C(NCc1ccco1)C1CCCN(S(=O)(=O)c2cnc[nH]2)C1 (stereo not given)  26S proteasome non-ATPase regulatory subunit 14 (Homo sapiens)            inhibition            -5.5
6  CN(C)C(=O)c1ccc(NC(=O)c2ccccc2-c2ccccc2)cc1  26S proteasome non-ATPase regulatory subunit 14 (Homo sapiens)            inhibition               7

Tell me its inhibition given O=C(c1ccc2c(c1)N(Cc1ccc(F)cc1)C(=O)CS2)N1CCOCC1 as the entry. 1.1

Give me measured inhibition, please, for this molecule: O=C(NCc1ccco1)C1CCCN(S(=O)(=O)c2ccccc2)C1 (stereo not given) -4.7

Read the entry CCC(C)C(CO)NC(=O)/C=C/[C@H]1O[C@@H](n2cnc3c(NC(=O)c4ccccc4)ncnc32)[C@H](O)[C@@H]1O (stereo not given in full) and write its reported inhibition. -5.5

Dear colleague, please send me the reported inhibition for O=P(c1ccc2c(c1)OCCO2)(N1CCOCC1)N1CCOCC1 when you can. 2.8

====

# target.of.assay: 26S proteasome non-ATPase regulatory subunit 14 (Homo sapiens)
# assay.overview: inhibition of 26S proteasome subunit Rpn11 – biochemical, fluorescence polarization, uHTS, primary screen (AID 588493)
# measurement.conditions: human 26S proteasome, Ub4-pepOG fluorescence polarization; at 20 µM; 20S core pre-blocked with epoxomicin
Hit rate of the full screen: of about 360,000 compounds, about 2,100 (0.58%) were called active.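 Rule for the calls: active = inhibition at 20 µM, scaled to each plate's controls, above about 33% (limit read from the data); inactive = the rest.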 The sample as a whole holds a higher share of actives than the screen did.
Result category, one only: 1 for active, 0 for inactive

Solved entries:
> print(dat)
                                   molecule  cat
1    COc1ccc(NC(=O)c2cn(-c3ccccc3)nc2SC)cc1    0
2  Cc1c(NC(=O)CSc2nnc(-c3cccnc3)n2N)c(=O)n(-c2ccccc2)n1C    0
3  CC(=O)c1sc(NC(=O)C2=NN(c3ccccc3)C(=O)CC2)nc1C    0
4         CCC(=O)N1CCC(C(N)=O)(N2CCCCC2)CC1    0
5   Cc1ccc2[nH]c(=O)c(COC(=O)c3ccccn3)cc2c1    0
6  CCOC(=O)C1(Cc2cccc(OC)c2)CCCN(C(=O)CCSC)C1 (centres undefined)    0
7         O=C(OCc1cc(Cl)ccc1OC(F)F)c1cccnc1    0
8  COc1ccc(C2N=C(N)N=C(N)N2c2ccccc2)cc1OC (centres undefined)    0

Assay result, entry CCc1c(C)[nH]c(=S)c(C#N)c1C — outcome? 0

Kindly provide the recorded test outcome for the following molecule: COC(=O)c1c(CCl)noc1C(=O)NC(C)C 0

Could you please tell me the result logged for CCCCc1nnc(NC(=O)CS(=O)(=O)Cc2ccccc2)s1 in this assay? 0

// outcome(item) with item = CN(C)CCOc1cccc(Br)c1 0

# lookup: test call for COc1ccc2c(c1)c(=Cc1ccc(N(C)C)cc1)c1cc(-c3ccccc3)[n+](C)n12 1

In this assay, the call recorded for CC1(c2ccccc2)NC(=O)N(CC(=O)N2CC(=O)Nc3ccccc32)C1=O (centres undefined) was what? 0

Record request — test call for CC(=O)O[C@H]1c2ccccc2-c2ccccc2[C@@H]1OC(C)=O 0

In this assay, the call recorded for O=C1NC(Nc2nc3ccccc3s2)(C(F)(F)F)C(=O)N1C1CCCCC1 (centres undefined) was what? 0

Fill in: this test's call for O=C(CNC(=O)c1ccc(Cl)cc1Cl)NCC(=O)Nc1ccccc1N1CCOCC1 is ___ 0

Which outcome was assigned to CCOC(=O)CSc1nnc(CNC(=O)Cc2ccccc2)n1-c1ccccc1OC in this test? 0

What call does the record list for Cc1ccc(Cc2c(-c3ccco3)nc3ccc(Cl)cn23)cc1 ? 0

Kindly provide the recorded test outcome for the following molecule: CCOC(=O)C1(CC2CCCCO2)CCN(Cc2nc(-c3cccs3)oc2C)CC1 (centres undefined) 0

Please indicate how the test categorized Cc1c(NC(=O)CSc2cccc3cccnc23)c(=O)n(-c2ccccc2)n1C . 1

Per the records of this test, what outcome belongs to NC(=O)Cc1ccc2sc(-c3ccccc3)nc2c1 ? 0

Hello, I am checking results. What call was entered for CSc1nccc(NC(=O)c2ccc(C(C)(C)C)cc2)n1 ? 0

// outcome(item) with item = O=C(OCc1cc2ccccc2[nH]c1=O)c1cccnc1 1
